read-out: Forkhead box O1 (FOXO1), FOXO1 (gene 2308); assay: LTEA_HepaRG_FOXO1: Life Technologies and Expression Analysis (LTEA) Assay for Forkhead box O1 (FOXO1) using HepaRG (AID 2283456); conditions: mRNA level, 48 h; actives raise or lower the signal
Activity calls are given as the source filed them. How the source made its calls: active means hit-call score of the fitted dose curve at least 0.9, where 1 is the maximum; inactive means score below 0.9.
Response enum: True (active), False (inactive)

Example cases with answers are listed next.
{"columns": ["compound", "category"],
 "data": [
  ["Oc1cccc2cccnc12", "False"],
  ["C[C@@H]1C[C@@H]([C@H](O)CC2CC(=O)NC(=O)C2)C(=O)[C@@H](C)C1", "False"],
  ["CCC(=O)C(CC(C)N(C)C)(c1ccccc1)c1ccccc1 (stereo not given)", "False"]
]}

Status in this test for ClCC(Cl)CCl ?
False

Could you do the same for ClC1(Cl)C2(Cl)C3(Cl)C4(Cl)C(Cl)(Cl)C5(Cl)C3(Cl)C1(Cl)C5(Cl)C24Cl (stereo not given) , please?
False

How about CC(C)(c1ccccc1)c1ccc(O)c(C(C)(C)c2ccccc2)c1 ?
False

Please give the result for CCN1CCC2(CC1)COc1cc3c(cc12)N(C(=O)c1ccc(-c2ccc(-c4nnc(C)o4)cc2C)cc1)CC3 too.
True

Value source: PubChem BioAssay (EPA / NIEHS)
